# experimental_target: recombinant full length HPK-1 enzyme (Homo sapiens (Human))
# method_summary: HPK-1 biochemical enzyme assay (ADP-Glo kinase inhibition)
# reported_conditions: recombinant full length HPK-1 6.8 nM, 10 μM ATP, 12.5 μM MBP, 30 mins at 25° C.
pIC50: −log10 of the molar value.
Measured pIC50 by item
assay_metric: pIC50

INSERT INTO measurements (smiles_data, value_observed) VALUES
  ('Cc1c(Nc2cc[nH]c(=O)c2C(=O)Nc2cccc(N3CCN(C)CC3)c2)cnc2c1NCCO2', '6.00 to 7.00'),
  ('Cc1c(Nc2cc[nH]c(=O)c2C(=O)Nc2ccc(N3CCN(CCO)CC3)cc2)cnc2c1NCCO2', '≥ 8.00'),
  ('Cc1c(Nc2cc[nH]c(=O)c2C(=O)Nc2ccc(N3CCN(C)CC3)cc2)cnc2c1N(C)CCO2', '7.00 to 8.00'),
  ('Cc1c(Nc2cc[nH]c(=O)c2C(=O)Nc2ccc(N3CCC(C)CC3)cc2)cnc2c1NCCO2', '7.00 to 8.00');

---

# experimental_target: recombinant full length HPK-1 enzyme (Homo sapiens (Human))
# method_summary: HPK-1 biochemical enzyme assay (ADP-Glo kinase inhibition)
# reported_conditions: recombinant full length HPK-1 6.8 nM, 10 μM ATP, 12.5 μM MBP, 30 mins at 25° C.
# Experimental: HPK-1 biochemical enzyme assay Compound inhibitory potency was measured in an HPK-1 kinase inhibition assay. […] Reactions were quenched and reaction mixtures were then analyzed by an ADP-Glo kit which measures the formed ADP. […] The compounds were dissolved in DMSO and evaluated at 10 concentrations to determine an IC50 value. […]
assay_metric: IC50

INSERT INTO measurements (compound, value_observed) VALUES
  ('Cc1c(Nc2cc[nH]c(=O)c2C(=O)Nc2ccc(CN3CCS(=O)(=O)CC3)cc2)cnc2c1NCCO2', '10 to 100 nM'),
  ('COC(C)CN1CCN(c2ccc(NC(=O)c3c(Nc4cnc5c(c4C)NCCO5)cc[nH]c3=O)cc2)CC1 (centres unmarked)', '10 to 100 nM'),
  ('Cc1c(Nc2cc[nH]c(=O)c2C(=O)Nc2ccc(N3CCN(C(=O)C4CC(C)C4)CC3)cc2)cnc2c1NCCO2 (centres unmarked)', '≤ 10 nM'),
  ('Cc1c(Nc2cc[nH]c(=O)c2C(=O)Nc2ccc(N3CCN(C(=O)C4(C)CC4)CC3)cc2)cnc2c1NCCO2', '≤ 10 nM'),
  ('COCC1CN(C)CCN1c1ccc(NC(=O)c2c(Nc3cnc4c(c3C)NCC(C)O4)cc[nH]c2=O)cc1 (centres unmarked)', '10 to 100 nM'),
  ('Cc1c(Nc2cc[nH]c(=O)c2C(=O)Nc2ccc(N3CCN(C(=O)N4CC(F)(F)C4)CC3)cc2)cnc2c1NCCO2', '≤ 10 nM'),
  ('Cc1c(Nc2cc[nH]c(=O)c2C(=O)Nc2ccc(N3CCN(c4cccnc4)CC3)cc2)cnc2c1NCCO2', '≤ 10 nM'),
  ('Cc1c(Nc2cc[nH]c(=O)c2C(=O)Nc2ccc(N3CCN(C(=O)N(C)C)CC3)cc2)cnc2c1NCCO2', '≤ 10 nM'),
  ('CCCCC(CC)CNC(=O)c1ccc(NC(=O)c2c(Nc3cnc4c(c3C)NCCO4)cc[nH]c2=O)cc1 (centres unmarked)', '10 to 100 nM'),
  ('Cc1c(Nc2cc[nH]c(=O)c2C(=O)Nc2ccc3c(c2)CN(C)C(=O)C3)cnc2c1NCCO2', '10 to 100 nM'),
  ('Cc1ncccc1N1CCN(c2ccc(NC(=O)c3c(Nc4cnc5c(c4C)NCCO5)cc[nH]c3=O)cc2)CC1', '≤ 10 nM'),
  ('CCN1CCN(c2ccc(NC(=O)c3c(Nc4cnc5c(c4C)NCCO5)cc[nH]c3=O)cc2)CC1', '≤ 10 nM'),
  ('Cc1c(Nc2cc[nH]c(=O)c2C(=O)Nc2ccc(N3CCN(c4cncnc4)CC3)cc2)cnc2c1NCCO2', '10 to 100 nM'),
  ('Cc1c(Nc2cc[nH]c(=O)c2C(=O)Nc2ccc(N3CCN(C)CC3)cc2)cnc2c1NCC(C)(C)O2', '10 to 100 nM'),
  ('CCn1nc(C(F)(F)F)cc1-c1ccc(NC(=O)c2c(Nc3cnc4c(c3C)NCCO4)cc[nH]c2=O)cc1', '10 to 100 nM'),
  ('Cc1c(Nc2cc[nH]c(=O)c2C(=O)Nc2ccc(N3CCN(CCCO)CC3)cc2)cnc2c1NCCO2', '≤ 10 nM'),
  ('Cc1c(Nc2cc[nH]c(=O)c2C(=O)Nc2ccc(N3CCN(C4CC4)CC3)c(Cl)c2)cnc2c1NCCO2', '≤ 10 nM');

---

# experimental_target: recombinant full length HPK-1 enzyme (Homo sapiens (Human), UniProt Q92918)
# Sequence (Q92918 whole entry, species assumed): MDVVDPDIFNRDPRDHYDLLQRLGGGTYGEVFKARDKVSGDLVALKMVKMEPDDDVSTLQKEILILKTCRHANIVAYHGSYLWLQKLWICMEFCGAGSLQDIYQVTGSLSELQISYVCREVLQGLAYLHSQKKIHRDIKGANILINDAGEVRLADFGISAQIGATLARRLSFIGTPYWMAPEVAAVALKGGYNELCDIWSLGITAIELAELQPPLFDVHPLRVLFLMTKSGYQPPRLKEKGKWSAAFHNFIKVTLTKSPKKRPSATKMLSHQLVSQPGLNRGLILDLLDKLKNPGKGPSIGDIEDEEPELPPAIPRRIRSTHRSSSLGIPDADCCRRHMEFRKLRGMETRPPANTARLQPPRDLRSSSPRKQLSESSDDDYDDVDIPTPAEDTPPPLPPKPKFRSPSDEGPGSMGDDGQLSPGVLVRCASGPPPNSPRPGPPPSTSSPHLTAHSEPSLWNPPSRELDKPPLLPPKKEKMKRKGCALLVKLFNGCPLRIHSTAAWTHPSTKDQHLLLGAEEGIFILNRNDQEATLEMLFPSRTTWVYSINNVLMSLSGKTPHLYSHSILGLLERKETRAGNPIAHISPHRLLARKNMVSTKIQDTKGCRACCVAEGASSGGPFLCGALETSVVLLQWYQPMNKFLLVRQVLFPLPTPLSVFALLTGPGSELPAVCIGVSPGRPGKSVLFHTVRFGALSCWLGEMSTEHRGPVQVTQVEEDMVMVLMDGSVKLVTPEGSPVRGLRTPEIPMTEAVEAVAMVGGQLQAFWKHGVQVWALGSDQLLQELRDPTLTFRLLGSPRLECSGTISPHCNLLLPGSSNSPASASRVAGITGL
# method_summary: HPK-1 biochemical enzyme assay (ADP-Glo kinase inhibition)
# reported_conditions: recombinant full length HPK-1 6.8 nM, 10 μM ATP, 12.5 μM MBP, 30 mins at 25° C.
// values below are reported IC50
assay_metric: IC50

INSERT INTO assay_data (compound, assay_metric, value_observed) VALUES
  ('Cc1c(Nc2cc[nH]c(=O)c2C(=O)Nc2ccc(N3CCN(Cc4ccnn4C)CC3)cc2)cnc2c1NCCO2', 'IC50', '≤ 10 nM'),
  ('Cc1c(Nc2cc[nH]c(=O)c2C(=O)Nc2ccc(C3CCN(C(C)C)CC3)cc2)cnc2c1NCC(C)O2 (stereo not drawn)', 'IC50', '10 to 100 nM'),
  ('Cc1c(Nc2cc[nH]c(=O)c2C(=O)Nc2ccc(N3CCN(C(=O)C(C)(C)C)CC3)cc2)cnc2c1NCCO2', 'IC50', '≤ 10 nM'),
  ('Cc1c(Nc2cc[nH]c(=O)c2C(=O)Nc2ccc3c(c2)CCC(=O)N3)cnc2c1NCCO2', 'IC50', '10 to 100 nM'),
  ('CCN1CCN(c2c(F)cc(NC(=O)c3c(Nc4cnc5c(c4C)NCCO5)cc[nH]c3=O)cc2F)CC1', 'IC50', '10 to 100 nM'),
  ('Cc1c(Nc2cc[nH]c(=O)c2C(=O)Nc2ccc(N3CCN(c4ccnc(C(=O)N(C)C)c4)CC3)cc2)cnc2c1NCCO2', 'IC50', '10 to 100 nM'),
  ('COCCC(=O)N1CCN(c2ccc(NC(=O)c3c(Nc4cnc5c(c4C)NCCO5)cc[nH]c3=O)cc2)CC1', 'IC50', '≤ 10 nM'),
  ('Cc1c(Nc2cc[nH]c(=O)c2C(=O)Nc2ccc3c(c2)NCCO3)cnc2c1NCCO2', 'IC50', '10 to 100 nM'),
  ('Cc1c(Nc2cc[nH]c(=O)c2C(=O)Nc2ccc(-c3cccnc3)cc2)cnc2c1NCCO2', 'IC50', '10 to 100 nM'),
  ('Cc1c(Nc2cc[nH]c(=O)c2C(=O)Nc2ccc3c(c2)OCCO3)cnc2c1NCCO2', 'IC50', '10 to 100 nM'),
  ('Cc1c(Nc2cc[nH]c(=O)c2C(=O)Nc2ccc(N3CCN(C(=O)CCO)CC3)cc2)cnc2c1NCCO2', 'IC50', '≤ 10 nM'),
  ('Cc1cc(N2CCN(c3ccc(NC(=O)c4c(Nc5cnc6c(c5C)NCCO6)cc[nH]c4=O)cc3)CC2)ccn1', 'IC50', '≤ 10 nM'),
  ('Cc1c(Nc2cc[nH]c(=O)c2C(=O)Nc2ccc(N3CCC(N)C3)cc2)cnc2c1NCCO2 (stereo not drawn)', 'IC50', '10 to 100 nM'),
  ('Cc1c(Nc2cc[nH]c(=O)c2C(=O)Nc2ccc(N3CCN(C(=O)c4ccn(C)n4)CC3)cc2)cnc2c1NCCO2', 'IC50', '10 to 100 nM'),
  ('Cc1c(Nc2cc[nH]c(=O)c2C(=O)Nc2ccc(N3CCN(C)[C@H](C)C3)cc2)cnc2c1NCCO2', 'IC50', '≤ 10 nM'),
  ('Cc1c(Nc2cc[nH]c(=O)c2C(=O)Nc2ccc(N3CCN(CCO)CC3)cc2)cnc2c1NCC(C)O2 (stereo not drawn)', 'IC50', '10 to 100 nM'),
  ('Cc1c(Nc2cc[nH]c(=O)c2C(=O)Nc2ccc(N3CCC(N4CCN(C(C)C)CC4)CC3)c(F)c2)cnc2c1NCC(C)O2 (stereo not drawn)', 'IC50', '≤ 10 nM'),
  ('CN1CCN(c2ccc(NC(=O)c3c(Nc4cnc5c(c4C#N)NCCO5)cc[nH]c3=O)cc2)CC1', 'IC50', '10 to 100 nM'),
  ('Cc1c(Nc2cc[nH]c(=O)c2C(=O)Nc2ccc(N3CCN(C4CC4)CC3)c(F)c2)cnc2c1NCCO2', 'IC50', '≤ 10 nM'),
  ('Cc1c(Nc2cc[nH]c(=O)c2C(=O)Nc2ccc(N3CCN(C)CC3)c(N)c2)cnc2c1NCCO2', 'IC50', '≤ 10 nM'),
  ('Cc1c(Nc2cc[nH]c(=O)c2C(=O)Nc2ccc3cn[nH]c3c2)cnc2c1NCCO2', 'IC50', '10 to 100 nM'),
  ('Cc1c(Nc2cc[nH]c(=O)c2C(=O)Nc2ccc(N3CCN(c4ccn(C)n4)CC3)cc2)cnc2c1NCCO2', 'IC50', '≤ 10 nM'),
  ('Cc1c(Nc2cc[nH]c(=O)c2C(=O)Nc2ccc(N3CCN(C)C[C@@H]3C)cc2)cnc2c1NCCO2', 'IC50', '≤ 10 nM'),
  ('Cc1c(Nc2cc[nH]c(=O)c2C(=O)Nc2ccc(-c3cnco3)cc2)cnc2c1NCCO2', 'IC50', '10 to 100 nM');
